meta.source: the supplement of paper PMC10724198

Tested on: Saccharomyces cerevisiae
Assay method text: protein stability index of tFT-peptide fusion (C-terminal peptide) (PSI (0-1 scale)); higher = more stable (slower turnover)
Condition label: genetic background: wild type; temperature: 30 C
So I've got a bunch of sequences here, and I need their protein stability index values.
Field format: numeric only.

Task item: Quick one: protein stability index for ISFDLCGKQNFQ [MTC7 C-terminal 12 aa] ?
Reply: 0.719

Task item: Entry NRRNNGYHPYNR [HRP1 C-terminal 12 aa] please
Reply: 0.665

Task item: Entry EDKDSESFSEVC [YCG1 C-terminal 12 aa] please
Reply: 0.705

Task item: Entry ESSKDVKRNNKD [SDH7 C-terminal 12 aa] please
Reply: 0.702

Task item: Entry EDNDYELIFMNV [PML1 C-terminal 12 aa] please
Reply: 0.712

Task item: Entry IHYLLHIERERK [YOR385W C-terminal 12 aa] please
Reply: 0.681

----------
Test system: Saccharomyces cerevisiae
Assay method text: protein stability index of tFT-peptide fusion (C-terminal peptide) (PSI (0-1 scale)); higher = more stable (slower turnover)
Condition label: genetic background: das1 deletion; temperature: 30 C
Think of 0.7 as a floor: if protein stability index stands on it or above, it is MET; beneath it, NOT MET.

Task item: Check if protein stability index >= 0.7 (inclusive). Item: FIRFAINIHTFI [YJL009W C-terminal 12 aa]
Reply: NOT MET

Task item: Entry YTVLEDDANDEK [HAP1 C-terminal 12 aa] please
Reply: NOT MET

Task item: Entry LNWLIKGILTED [HFI1 C-terminal 12 aa] please
Reply: MET

Task item: Entry FFFSNSFLPASR [YJL127W-A C-terminal 12 aa] please
Reply: MET

Task item: Entry MFGKLGRYLYSH [NSG2 C-terminal 12 aa] please
Reply: MET

Task item: Entry RQNDKGAIKKSK [YEA4 C-terminal 12 aa] please
Reply: NOT MET

Task item: Entry GWEVLSVYSFTR [MTQ2 C-terminal 12 aa] please
Reply: MET

Task item: Entry GQTSRTVTPAPN [ITC1 C-terminal 12 aa] please
Reply: MET

Task item: Entry FSSEYLLVHVQQ [YLR458W C-terminal 12 aa] please
Reply: NOT MET

----------
Test system: Saccharomyces cerevisiae
Assay method text: protein stability index of tFT-peptide fusion (C-terminal peptide) (PSI (0-1 scale)); higher = more stable (slower turnover)
Condition label: genetic background: wild type; temperature: 30 C
Quantity kind: protein stability index
Field format: numeric only.

Task item: Quick one: protein stability index for "ALPYPPRFPHCS" ?
Reply: 0.645

Task item: Entry "VLSGPQVVWSES" please
Reply: 0.679

Task item: Entry "FALFCFVIFMSR" please
Reply: 0.363

Task item: Entry "PPYPLHPARPPY" please
Reply: 0.702

Task item: Entry "SGGPDCLSMSGL" please
Reply: 0.694

Task item: Entry "TPPVHLPPSSFS" please
Reply: 0.744

Task item: Entry "KVKGKSISKINH" please
Reply: 0.645

Task item: Entry "WKGEREKQGKEG" please
Reply: 0.589

Task item: Entry "CARAAFRGYYAQ" please
Reply: 0.744

Task item: Entry "RITYIANNVMLF" please
Reply: 0.652

Task item: Entry "TTILCVARHIPH" please
Reply: 0.759

Task item: Entry "PLWALVRDVRVG" please
Reply: 0.652

Task item: Entry "LPPPYSPRLFHN" please
Reply: 0.241

Task item: Entry "NCSSNNRQSENI" please
Reply: 0.644

Task item: Entry "VVRAVLCVCASV" please
Reply: 0.46

Task item: Entry "SWRKGAHRPVEV" please
Reply: 0.66

Task item: Entry "VARPSGQRVRHA" please
Reply: 0.656

Task item: Entry "PPFDSAHPTPAP" please
Reply: 0.739

Task item: Entry "NKIRIIQVNLNR" please
Reply: 0.699

----------
System: Saccharomyces cerevisiae
Assay method text: protein stability index of tFT-peptide fusion (C-terminal peptide) (PSI (0-1 scale)); higher = more stable (slower turnover)
Condition label: genetic background: wild type; temperature: 30 C
Think of 0.7 as a floor: if protein stability index stands on it or above, it is satisfied; beneath it, not satisfied.

Task item: Check if protein stability index >= 0.7 (inclusive). Item: "PESAWLSPRCVF"
Reply: not satisfied

Task item: Entry "PTAESFNVRKRD" please
Reply: satisfied

Task item: Entry "FPLPPFPLTPPP" please
Reply: not satisfied

Task item: Entry "FFCLVPLALPRF" please
Reply: not satisfied

Task item: Entry "LGSYVWVFVYFW" please
Reply: not satisfied

Task item: Entry "MIASRVSYDMSY" please
Reply: not satisfied

----------
So I've got a bunch of sequences here, and I need their protein stability index values.
System: Saccharomyces cerevisiae
Assay method text: protein stability index of tFT-peptide fusion (C-terminal peptide) (PSI (0-1 scale)); higher = more stable (slower turnover)
Condition label: genetic background: wild type; temperature: 30 C
Field format: numeric only.

Task item: Quick one: protein stability index for "ARCLSFPSSSSA" ?
Reply: 0.654

Task item: Entry "LCIFFWFSSFFL" please
Reply: 0.493

Task item: Entry "FLSALLALPASP" please
Reply: 0.698

Task item: Entry "GEGNAIGQVVRN" please
Reply: 0.681

Task item: Entry "TTSDSVVFWTLH" please
Reply: 0.719

Task item: Entry "LFCGALSTRLAR" please
Reply: 0.751

Task item: Entry "PFPHLYTPRLLF" please
Reply: 0.571

Task item: Entry "SGVSRSGREFRN" please
Reply: 0.634

Task item: Entry "LRRTKWRTLQAP" please
Reply: 0.701

Task item: Entry "GGGMRLVKRACY" please
Reply: 0.64

Task item: Entry "WVPGPLEPSLVL" please
Reply: 0.774

Task item: Entry "KKQQKKKNKNDR" please
Reply: 0.651

Task item: Entry "GCGDSLGGERRE" please
Reply: 0.643

Task item: Entry "RGWVEWGVRASE" please
Reply: 0.749

Task item: Entry "TGAPSKQYDRFL" please
Reply: 0.747

Task item: Entry "VDLLGWVSESRC" please
Reply: 0.743

Task item: Entry "PPPPPHAEAVSR" please
Reply: 0.59

Task item: Entry "TLTSPFGSPTWD" please
Reply: 0.638

Task item: Entry "PFHSLSATFPPR" please
Reply: 0.768

Task item: Entry "FSFSFWALLWFP" please
Reply: 0.466

Task item: Entry "LTLGSSGTSFLS" please
Reply: 0.698

Task item: Entry "PPPALTHLLPLP" please
Reply: 0.678

Task item: Entry "REGDLLKFKMRP" please
Reply: 0.725

Task item: Entry "PSPPPHGLPRPA" please
Reply: 0.675

Task item: Entry "GKYIPHGNPSMA" please
Reply: 0.685

Task item: Entry "FLPRRLCVRWRG" please
Reply: 0.684

Task item: Entry "PLVPLAFWSPLV" please
Reply: 0.686

Task item: Entry "GGGGRWGVLVLG" please
Reply: 0.504

Task item: Entry "PPPPSSPFPHAS" please
Reply: 0.697

Task item: Entry "LCSPGPLPPSYF" please
Reply: 0.705

Task item: Entry "ARPFLWDFCLGR" please
Reply: 0.681

Task item: Entry "SKNQQKKCQMIT" please
Reply: 0.534

Task item: Entry "ISYIGCCKIVLT" please
Reply: 0.553

Task item: Entry "ERTKKKRRKEKH" please
Reply: 0.663

Task item: Entry "FLSLVIVLRWFL" please
Reply: 0.347

Task item: Entry "PVPSYYHKPPPL" please
Reply: 0.704

Task item: Entry "RLARAPTQPRLS" please
Reply: 0.67

Task item: Entry "KPRSRMHRIVRI" please
Reply: 0.722

Task item: Entry "RGVGAGGLEGIG" please
Reply: 0.535

Task item: Entry "LLVNLNINYFKR" please
Reply: 0.689

Task item: Entry "SHTRPRPPLHLP" please
Reply: 0.68

----------
So I've got a bunch of sequences here, and I need their protein stability index values.
System: Saccharomyces cerevisiae
Assay method text: protein stability index of tFT-peptide fusion (C-terminal peptide) (PSI (0-1 scale)); higher = more stable (slower turnover)
Condition label: genetic background: wild type; temperature: 30 C
Field format: numeric only.

Task item: Quick one: protein stability index for "LGGGAGKRVCEG" ?
Reply: 0.685

Task item: Entry "FCRYSRAWKDFV" please
Reply: 0.737

Task item: Entry "AYRITRSRGTEF" please
Reply: 0.723

Task item: Entry "RGRGRVFVFGNW" please
Reply: 0.726

Task item: Entry "LSPLSHPPSPAP" please
Reply: 0.681

Task item: Entry "ILGQSVIMRIKM" please
Reply: 0.714

Task item: Entry "QSLRRLSSSSCI" please
Reply: 0.707

Task item: Entry "RTVPCCVAENKF" please
Reply: 0.672

Task item: Entry "VNEEGCDILVRT" please
Reply: 0.757

Task item: Entry "FGAIREVFYIRL" please
Reply: 0.662

Task item: Entry "PHPPPERSTNLC" please
Reply: 0.694

Task item: Entry "LPSSSPHPADPS" please
Reply: 0.643

Task item: Entry "GCQVAVGRAGGV" please
Reply: 0.659

Task item: Entry "VGGEGGLGVRPR" please
Reply: 0.662

Task item: Entry "SSPSPPSLLPSL" please
Reply: 0.71

Task item: Entry "TYRLPLLAPAPR" please
Reply: 0.688

Task item: Entry "LLVLFRWSGIPG" please
Reply: 0.552

Task item: Entry "GFTCGCSSMKNF" please
Reply: 0.718

Task item: Entry "PPLPPVPSPPPP" please
Reply: 0.654

Task item: Entry "DLRSQGWVALFH" please
Reply: 0.663

Task item: Entry "FFSFWVGATTIE" please
Reply: 0.7

Task item: Entry "QAKKSLTTKTSD" please
Reply: 0.658

Task item: Entry "PPPPLSTVPPPP" please
Reply: 0.811

Task item: Entry "FCFHPLTGKLSG" please
Reply: 0.654

Task item: Entry "IARKCLTGGGVS" please
Reply: 0.696

Task item: Entry "PRRYPPPSPRTS" please
Reply: 0.704

Task item: Entry "FVGLFEYILLFV" please
Reply: 0.29

Task item: Entry "MPKVIIGMSVTK" please
Reply: 0.687

Task item: Entry "GHHLRVRVILTA" please
Reply: 0.275

Task item: Entry "VSGYGSSQDDVR" please
Reply: 0.64

Task item: Entry "TRNRKEWKIVIL" please
Reply: 0.594

Task item: Entry "PFGSYIRHRENT" please
Reply: 0.759

Task item: Entry "EKKEKKETTDTE" please
Reply: 0.693

Task item: Entry "LLWCPLRSIGLS" please
Reply: 0.696

Task item: Entry "FSRSGIRLLGVA" please
Reply: 0.59

Task item: Entry "PAPPPPARPALP" please
Reply: 0.706

Task item: Entry "PPFLLPCFPCFS" please
Reply: 0.494

Task item: Entry "LCYVLLWLLCRS" please
Reply: 0.448

Task item: Entry "PTVKVLSWLAGH" please
Reply: 0.703

Task item: Entry "GCLVGRGQRGTE" please
Reply: 0.686

Task item: Entry "FGPVLLVSFLFS" please
Reply: 0.35

Task item: Entry "FFSRIIAILVLM" please
Reply: 0.23

Task item: Entry "WGRGLESVKGGG" please
Reply: 0.727

Task item: Entry "ATRLFSSNLFLR" please
Reply: 0.576

Task item: Entry "AVPITRLPSPSP" please
Reply: 0.667

Task item: Entry "ALMHVTLAVGLL" please
Reply: 0.579

Task item: Entry "GDFYCSSVVLVV" please
Reply: 0.306

Task item: Entry "GGGGGGPSGGSG" please
Reply: 0.701

Task item: Entry "HLPWTGTPHATV" please
Reply: 0.737

Task item: Entry "PSPARLFVSPSP" please
Reply: 0.649

Task item: Entry "KLILGGSRGIMD" please
Reply: 0.646

Task item: Entry "PPYPPETPPVHP" please
Reply: 0.724

Task item: Entry "TRSRAQTEAHRR" please
Reply: 0.669

Task item: Entry "GLFVDIRLHRRT" please
Reply: 0.71

Task item: Entry "AFLLVLFCCVSC" please
Reply: 0.298

Task item: Entry "DSTVGRTLRTRR" please
Reply: 0.617

Task item: Entry "PLPLHPSALPSL" please
Reply: 0.676

Task item: Entry "GVTGGWVVNRGV" please
Reply: 0.705

Task item: Entry "CGAVDTETWWGG" please
Reply: 0.642

Task item: Entry "GTDGGRSSLGCR" please
Reply: 0.718

Task item: Entry "IAYGCCYKELII" please
Reply: 0.63

Task item: Entry "DTRRHSFCSGTG" please
Reply: 0.697

Task item: Entry "TQVGLGSFYSLG" please
Reply: 0.697

Task item: Entry "RKRWQWGRVRGV" please
Reply: 0.617

Task item: Entry "KQKNSNKKTQRI" please
Reply: 0.712

Task item: Entry "PPSNAFEETLRT" please
Reply: 0.7

Task item: Entry "IGSFTRTTKKFK" please
Reply: 0.723

Task item: Entry "LSHSHLYLFFHH" please
Reply: 0.696

Task item: Entry "FVFSMDAFRSGL" please
Reply: 0.665

Task item: Entry "AQTHGGSSLPRP" please
Reply: 0.688

Task item: Entry "VRRWAVSSAFVG" please
Reply: 0.628

Task item: Entry "ARRTEEVVLRSL" please
Reply: 0.693

Task item: Entry "LTCRASNGIQAA" please
Reply: 0.677

Task item: Entry "NPYKREKKKNKK" please
Reply: 0.787

Task item: Entry "PPPHATPAPSPL" please
Reply: 0.706

Task item: Entry "PHLTPRRQHRLR" please
Reply: 0.667

Task item: Entry "CQILLSYSGYPH" please
Reply: 0.589

Task item: Entry "HSFASTWYSSPG" please
Reply: 0.685

Task item: Entry "RGEGGRGRTVEG" please
Reply: 0.631

Task item: Entry "GAGGVWGGGQAG" please
Reply: 0.696

Task item: Entry "KKKKRQNIQNKK" please
Reply: 0.692

Task item: Entry "AVPSAPPNPDAS" please
Reply: 0.704
